Molecular target: Human plasma kallikrein (Homo sapiens (Human))
Sequence (P03952 391-638): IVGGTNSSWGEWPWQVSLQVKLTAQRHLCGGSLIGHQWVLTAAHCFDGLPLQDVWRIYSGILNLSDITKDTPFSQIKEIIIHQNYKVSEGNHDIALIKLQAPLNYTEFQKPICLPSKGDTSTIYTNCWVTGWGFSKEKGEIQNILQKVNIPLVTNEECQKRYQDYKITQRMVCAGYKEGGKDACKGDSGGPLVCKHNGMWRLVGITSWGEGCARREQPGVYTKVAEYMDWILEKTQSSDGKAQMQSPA
Sequence (P03952 20-390 partner): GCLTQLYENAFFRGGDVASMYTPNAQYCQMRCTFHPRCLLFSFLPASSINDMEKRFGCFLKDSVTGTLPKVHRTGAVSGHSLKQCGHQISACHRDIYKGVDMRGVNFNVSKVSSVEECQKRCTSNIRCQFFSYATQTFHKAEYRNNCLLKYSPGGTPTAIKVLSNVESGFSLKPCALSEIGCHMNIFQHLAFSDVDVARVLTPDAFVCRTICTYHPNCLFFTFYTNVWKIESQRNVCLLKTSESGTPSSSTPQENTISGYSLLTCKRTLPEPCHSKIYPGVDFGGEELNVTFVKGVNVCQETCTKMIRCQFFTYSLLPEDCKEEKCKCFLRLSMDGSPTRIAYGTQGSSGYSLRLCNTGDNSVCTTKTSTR
Test: Kallikrein Assay (fluorogenic substrate Acetyl-K-P-R-AFC)
Conditions: Plasma Kallikrein (PKal)
Recorded measurements of log10 IC50, one per entry
Measured Endpoint: log10 IC50 (log10 of the value in nM)

Compound | Measured Endpoint | Experimental Value
Cc1nc(N2C[C@H]3C[C@H]3C2=O)c(F)cc1C(C)n1cc(NC(=O)c2cncc(-c3c(C(F)F)ccc(Cl)c3F)n2)cn1 (stereo partly drawn) [Example 151] | log10 IC50 | 0.76
Cc1cc(C(C)n2cc(NC(=O)c3nc(-c4c(OC(F)F)ccc(Cl)c4F)cnc3C)cn2)cnc1N1C[C@H]2C[C@H]2C1=O (single isomer, unassigned) [Example 131] | log10 IC50 | -0.30
Cc1nc(C(C)n2cc(NC(=O)c3nc(-c4c(C(F)F)ccc(Cl)c4F)cnc3CO)cn2)cnc1N1C[C@H]2C[C@H]2C1=O (single isomer, unassigned) [Example 198] | log10 IC50 | -1.00
CCc1ncc(-c2c(C(F)F)ccc(Cl)c2F)nc1C(=O)Nc1cnn(C(C)c2cc(C)c(N3C[C@H]4C[C@H]4C3=O)nn2)c1 (single isomer, unassigned) [Example 238] | log10 IC50 | 0.80
Cc1nc(N2C[C@H]3C[C@H]3C2=O)ncc1Cn1cc(NC(=O)c2nc(-c3c(C(F)F)ccc(Cl)c3F)cc(=O)n2C)cn1 | log10 IC50 | 0.26
Cc1ncc(-c2c(C(F)F)ccc(Cl)c2F)nc1C(=O)Nc1cnn(C(C)c2cnc(N3C[C@H]4C[C@H]4C3=O)nc2)c1 (single isomer, unassigned) [Example 30] | log10 IC50 | 0.26
